quantity_measured: MIC (µg/mL)
Report the value in µg/mL with no unit label.

Lookup: Tell me MIC of CC(=O)NC[C@H]1CN(c2ccc(N3CCOCC3)c(F)c2)C(=O)O1 [Linezolid, reference compound] when tested on S. aureus ATCC 25923 MS 319.
Found: 2

Lookup: For S. aureus ATCC 25923 MS 319, give the measured MIC of the entry O=C1O[C@@H](CNC(=S)c2ccco2)CN1c1ccc(N2CCSCC2)c(F)c1 [Example 9]
Found: 2

Lookup: GET MIC | system: S. aureus ATCC 25923 MS 319 | item: CC(=S)N1CCN(c2ccc(N3C[C@H](CNC(=S)c4ccoc4)OC3=O)cc2F)CC1 [Example 7]
Found: 0.5

Lookup: Report the value of MIC obtained on S. aureus ATCC 25923 MS 319 for O=C1O[C@@H](CNC(=S)c2ccco2)CN1c1ccc(N2CCOCC2)c(F)c1 [Example 2] .
Found: 8

Lookup: Provide measured MIC on S. aureus ATCC 25923 MS 319 for O=C1O[C@@H](CNC(=S)c2ccoc2)CN1c1ccc(N2CCSCC2)c(F)c1 [Example 11] please.
Found: 2

Lookup: State, for S. aureus ATCC 25923 MS 319, measured MIC of the compound listed here: O=C1O[C@@H](CNC(=S)c2ccoc2)CN1c1ccc(N2CCOCC2)c(F)c1 [Example 4]
Found: 1

###

experimental_target: human MAO-B (Homo sapiens, UniProt P27338)
Sequence (P27338 1-520): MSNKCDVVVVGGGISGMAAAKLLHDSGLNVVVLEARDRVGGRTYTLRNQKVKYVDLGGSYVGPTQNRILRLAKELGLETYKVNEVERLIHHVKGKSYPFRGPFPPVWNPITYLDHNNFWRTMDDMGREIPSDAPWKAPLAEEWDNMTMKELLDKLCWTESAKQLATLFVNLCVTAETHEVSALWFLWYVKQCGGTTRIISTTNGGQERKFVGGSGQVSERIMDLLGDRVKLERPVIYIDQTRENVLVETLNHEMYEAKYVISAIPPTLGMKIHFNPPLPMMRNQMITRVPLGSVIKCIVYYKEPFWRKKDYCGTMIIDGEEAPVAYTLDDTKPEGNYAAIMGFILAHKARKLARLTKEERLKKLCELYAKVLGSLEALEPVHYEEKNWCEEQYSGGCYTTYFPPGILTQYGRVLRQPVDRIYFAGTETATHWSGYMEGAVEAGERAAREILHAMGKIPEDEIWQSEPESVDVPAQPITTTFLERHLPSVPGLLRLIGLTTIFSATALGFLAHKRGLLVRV
Assign Ki to each entry below.
# do not omit the unit; it follows the number

Lookup: State, in one line, measured Ki of O=C1O[C@@H](CNC(=S)c2ccco2)CN1c1ccc(N2CCSCC2)c(F)c1
Found: 1000 nM

Lookup: Give me measured Ki, please, for this molecule: CC(=O)NC[C@H]1CN(c2ccc(N3CCOCC3)c(F)c2)C(=O)O1 [Linezolid, reference compound]
Found: 480 nM

Lookup: Could you please provide reported Ki for CC(=S)N1CCN(c2ccc(N3C[C@H](CNC(=S)c4ccoc4)OC3=O)cc2F)CC1 ? Thanks!
Found: 2800 nM

Lookup: State its Ki: O=C1O[C@@H](CNC(=S)c2ccoc2)CN1c1ccc(N2CCSCC2)c(F)c1
Found: 600 nM

Lookup: Determine its reported Ki: O=C1O[C@@H](CNC(=S)c2ccoc2)CN1c1ccc(N2CCOCC2)c(F)c1
Found: 2400 nM

###

experimental_target: human MAO-A (Homo sapiens, UniProt P21397)
Sequence (P21397 1-527): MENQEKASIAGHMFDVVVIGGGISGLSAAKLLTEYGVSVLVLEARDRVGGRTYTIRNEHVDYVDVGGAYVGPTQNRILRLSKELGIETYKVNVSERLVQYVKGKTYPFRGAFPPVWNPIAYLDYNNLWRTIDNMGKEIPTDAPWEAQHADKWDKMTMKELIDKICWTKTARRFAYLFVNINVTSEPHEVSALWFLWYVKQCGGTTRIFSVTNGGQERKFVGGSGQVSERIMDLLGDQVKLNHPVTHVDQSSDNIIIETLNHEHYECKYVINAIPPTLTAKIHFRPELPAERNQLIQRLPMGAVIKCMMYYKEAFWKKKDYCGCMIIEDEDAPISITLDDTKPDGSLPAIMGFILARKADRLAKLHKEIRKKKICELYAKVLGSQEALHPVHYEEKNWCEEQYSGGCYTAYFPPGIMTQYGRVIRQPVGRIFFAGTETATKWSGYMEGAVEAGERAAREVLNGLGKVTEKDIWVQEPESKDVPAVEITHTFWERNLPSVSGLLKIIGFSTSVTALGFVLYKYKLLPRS
quantity_measured: pKi
// field semantics: pKi = negative decimal log of concentration (mol/L)

Lookup: Tell me its pKi given O=C1O[C@@H](CNC(=S)c2ccco2)CN1c1ccc(N2CCSCC2)c(F)c1 as the entry.
Found: 4.32

Lookup: Output measured pKi for this item: CC(=O)NC[C@H]1CN(c2ccc(N3CCOCC3)c(F)c2)C(=O)O1 [Linezolid, reference compound]
Found: 5.15

###

Target chain: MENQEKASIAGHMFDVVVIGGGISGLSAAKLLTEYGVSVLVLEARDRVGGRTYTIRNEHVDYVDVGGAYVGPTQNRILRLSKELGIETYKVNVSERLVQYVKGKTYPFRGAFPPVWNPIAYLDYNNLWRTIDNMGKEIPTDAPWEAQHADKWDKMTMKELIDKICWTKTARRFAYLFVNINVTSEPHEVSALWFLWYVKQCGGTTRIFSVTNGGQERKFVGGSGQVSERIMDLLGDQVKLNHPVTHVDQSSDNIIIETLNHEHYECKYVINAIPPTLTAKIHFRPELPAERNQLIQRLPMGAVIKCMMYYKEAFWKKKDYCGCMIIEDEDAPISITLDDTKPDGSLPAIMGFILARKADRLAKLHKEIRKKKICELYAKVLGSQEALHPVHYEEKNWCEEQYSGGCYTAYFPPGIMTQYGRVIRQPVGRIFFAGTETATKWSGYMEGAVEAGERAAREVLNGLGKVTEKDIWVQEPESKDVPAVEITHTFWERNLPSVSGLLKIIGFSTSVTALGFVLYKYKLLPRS
pKi: −log10 of the molar value.
quantity_measured: pKi

Lookup: Retrieve pKi measured for O=C1O[C@@H](CNC(=S)c2ccoc2)CN1c1ccc(N2CCOCC2)c(F)c1 [Example 4] and print it.
Found: ≤ 3.60

Lookup: Hello, please tell me recorded pKi for this one: O=C1O[C@@H](CNC(=S)c2ccoc2)CN1c1ccc(N2CCSCC2)c(F)c1 [Example 11]
Found: ≤ 3.60

Lookup: Give pKi for the following molecule: CC(=S)N1CCN(c2ccc(N3C[C@H](CNC(=S)c4ccoc4)OC3=O)cc2F)CC1 [Example 7]
Found: ≤ 3.70
